These entries and their values trace back to patent US20260226031A1.

The entries below are paired with their reported mPTP Rat liver pIC50*.
System: mPTP
Assay: mPTP activity (Ca2+ retention) assay in isolated rat liver mitochondria
Format: biochemical
Details: isolated rat liver mitochondria; Fluo5N fluorescence at 10 min after CaCl2 (75 μM) bolus; DMSO 0%, 5 μM cyclosporin A 100% inhibition
Quantity name: mPTP Rat liver pIC50*

1. O=C(c1cncc(O)c1)N1CC(c2ccccc2)C2(CCC2)C1 (single isomer, unassigned) [Example 1b]: 6.01
2. O=C(c1cncc(=O)[nH]1)N1CC(c2ccc(F)cc2F)C2(CCC2)C1 (single isomer, unassigned) [Example 37a]: 5.99
3. Cn1nc(C(=O)N2C[C@@H](c3ccccc3)C3(CCC3)C2)[nH]c1=O (single isomer, unassigned): 5.33

###

Test system: mPTP
Assay: mPTP activity (Ca2+ retention) assay in isolated rat brain mitochondria
Format: biochemical
Conditions: isolated rat brain mitochondria; Fluo5N fluorescence at 10 min after Ca2+ (75 μM) bolus
Below, each entry is listed with its recorded mPTP Rat brain pIC50.
Quantity name: mPTP Rat brain pIC50

1) O=C(c1noc(=O)[nH]1)N1CC(c2cccc(F)c2F)C2(CCC2)C1 (single isomer, unassigned) [Example 44a]: 7.33
2) O=C(c1noc(=O)[nH]1)N1CC(c2cccc(F)c2)C2(CCC2)C1 (single isomer, unassigned) [Example 49b]: <4.52
3) O=C(c1cncc(=O)[nH]1)N1CC(c2ccc(F)cc2)C2(CCC2)C1 (single isomer, unassigned) [Example 35b]: 5.79
4) O=C(c1cncc(=O)[nH]1)N1CC(c2cccc(F)c2)C2(CCC2)C1 (single isomer, unassigned) [Example 40b]: <4.52
5) O=C(c1cncc(O)n1)N1CC(c2ccccc2)C2(CCC2)C1 (single isomer, unassigned) [Example 6b]: <4.52
6) O=C(c1cc(O)no1)N1CC(c2ccccc2)C2(CCC2)C1 (stereo not shown) [Example 22]: 6.7
7) COc1ccc(C2CN(C(=O)c3cncc(=O)[nH]3)CC23CCC3)cc1 (single isomer, unassigned) [Example 28b]: <4.52

###

System: mPTP
Assay: mPTP activity (Ca2+ retention) assay in isolated rat liver mitochondria
Assay type: biochemical
Conditions: isolated rat liver mitochondria; Fluo5N fluorescence at 10 min after CaCl2 (75 μM) bolus; DMSO 0%, 5 μM cyclosporin A 100% inhibition
Quantity name: mPTP Rat liver pIC50*

1. O=C(c1nccc(=O)[nH]1)N1CC(c2ccccc2)C2(CC(F)C2)C1 (single isomer, unassigned) [Example 25c]: 5.68
2. O=C(c1ccnc(=O)[nH]1)N1CC(c2ccccc2)C2(CCC2)C1 (single isomer, unassigned) [Example 27a]: 6.11
3. O=C(c1nccc(=O)[nH]1)N1CC(c2ccccc2)C2(CC(F)C2)C1 (single isomer, unassigned) [Example 25a]: 6.33
4. CCC1CN(C(=O)c2cncc(=O)[nH]2)CC1c1ccccc1 (single isomer, unassigned) [Example 15c]: 5.24
5. O=C(c1cncc(=O)[nH]1)N1CC(c2cccc(F)c2F)C2(CCC2)C1 (single isomer, unassigned) [Example 43b]: 4.94

###

System: mPTP
Experiment: mPTP activity (Ca2+ retention) assay in isolated rat liver mitochondria
Assay type: biochemical
Settings: isolated rat liver mitochondria; Fluo5N fluorescence at 10 min after CaCl2 (75 μM) bolus; DMSO 0%, 5 μM cyclosporin A 100% inhibition
Recorded measurements of mPTP Rat liver pIC50*, one per entry
Quantity name: mPTP Rat liver pIC50*

1) O=C(c1cncc(=O)[nH]1)N1CC(c2cc(Cl)ccc2F)C2(CCC2)C1 (single isomer, unassigned) [Example 32a]: 5.87
2) Cn1nc(C(=O)N2CC(c3ccccc3)C3(CCC3)C2)[nH]c1=O (stereo not shown): 5.04
3) O=C(c1cncc(O)c1)N1CC(c2ccccc2)C2(CCC2)C1 (stereo not shown) [Example 1a]: 5.68

###

Tested on: mPTP
Assay: mPTP activity (Ca2+ retention) assay in isolated rat brain mitochondria
Format: biochemical
Conditions: isolated rat brain mitochondria; Fluo5N fluorescence at 10 min after Ca2+ (75 μM) bolus
Method: MPTP activity was measured in brain mitochondria freshly isolated from female Sprague Dawley (250 to 300 gram) rats. […] Test compounds were prepared in 384 well polypropylene assay plates as described above for the liver mitochondria assay. […] Assay plates were then transferred to a FLIPR Tetra plate reader (Molecular Devices). Dye fluorescence was then measured every 3 sec for a total of 10 min.
Recorded mPTP Rat brain pIC50 for the following compounds
Quantity name: mPTP Rat brain pIC50

1. O=C(c1cncc(=O)[nH]1)N1CC(c2ccc(F)cc2F)C2(CCC2)C1 (single isomer, unassigned) [Example 37a]: 7.28
2. O=C(c1cncc(=O)[nH]1)N1CC(c2cc(Cl)ccc2F)C2(CCC2)C1 (single isomer, unassigned) [Example 32a]: 7.19
3. O=C(c1nccc(=O)[nH]1)N1CC(c2ccccc2)C2(CCC2)C1 (single isomer, unassigned) [Example 21a]: 6.98
4. O=C(c1noc(=O)[nH]1)N1CC(c2ccc(F)cc2)C2(CCC2)C1 (single isomer, unassigned) [Example 41a]: 7.19

###

Tested on: mPTP
Assay: mPTP activity (Ca2+ retention) assay in isolated rat brain mitochondria
Assay type: biochemical
Settings: isolated rat brain mitochondria; Fluo5N fluorescence at 10 min after Ca2+ (75 μM) bolus
Catalogue of molecules with associated mPTP Rat brain pIC50
Quantity name: mPTP Rat brain pIC50

1. CC1(C)CN(C(=O)c2cncc(=O)[nH]2)CC1c1ccccc1 (stereo not drawn) [Example 8]: 6.97
2. O=C(c1noc(=O)[nH]1)N1CC(c2ccc(F)cc2F)C2(CCC2)C1 (single isomer, unassigned) [Example 48a]: 6.47
3. O=C(c1cncc(=O)[nH]1)N1CC(c2ccccc2)C2(CCCC2)C1 (single isomer, unassigned) [Example 17a]: 6.63
4. O=C(c1cncc(=O)[nH]1)N1CC(c2ccc(Cl)cc2)C2(CCC2)C1 (single isomer, unassigned) [Example 16a]: 6.39
5. O=C(c1nccc(=O)[nH]1)N1CC(c2ccccc2)C2(CCC2)C1 (racemic) [Example 18]: 6.56
6. O=C(c1noc(=O)[nH]1)N1CC(c2ccccc2)C2(CCC2)C1 (single isomer, unassigned) [Example 34a]: 7.37

###

Reported mPTP Rat brain pIC50 values are given for each entry in this list.
Tested on: mPTP
Assay: mPTP activity (Ca2+ retention) assay in isolated rat brain mitochondria
Assay type: biochemical
Details: isolated rat brain mitochondria; Fluo5N fluorescence at 10 min after Ca2+ (75 μM) bolus
Description: MPTP activity was measured in brain mitochondria freshly isolated from female Sprague Dawley (250 to 300 gram) rats. […] Test compounds were prepared in 384 well polypropylene assay plates as described above for the liver mitochondria assay. […] Assay plates were then transferred to a FLIPR Tetra plate reader (Molecular Devices). Dye fluorescence was then measured every 3 sec for a total of 10 min.
Quantity name: mPTP Rat brain pIC50

1) O=C(c1cncc(=O)[nH]1)N1CC(c2ccc(Br)cc2)C2(CCC2)C1 (single isomer, unassigned) [Example 29a]: 6.2
2) CC1(C)CN(C(=O)c2cncc(=O)[nH]2)CCC1c1ccccc1 (stereo not shown): 6.61
3) O=C(c1cc(O)no1)N1CC(c2cccc(F)c2)C2(CCC2)C1 (single isomer, unassigned) [Example 38a]: 7.34
4) CCC1CN(C(=O)c2cncc(=O)[nH]2)CC1c1ccccc1 (single isomer, unassigned) [Example 15d]: <4.52

###

Tested on: mPTP
Assay: mPTP activity (Ca2+ retention) assay in isolated rat liver mitochondria
Format: biochemical
Settings: isolated rat liver mitochondria; Fluo5N fluorescence at 10 min after CaCl2 (75 μM) bolus; DMSO 0%, 5 μM cyclosporin A 100% inhibition
A collection of compounds and their measured mPTP Rat liver pIC50*
Quantity name: mPTP Rat liver pIC50*

1) O=C(c1cncc(=O)[nH]1)N1CC(c2ccccc2F)C2(CCC2)C1 (stereo not drawn) [Example 7]: 5.95
2) O=C(c1cncc(=O)[nH]1)N1CC(c2ccc(Br)cc2)C2(CCC2)C1 (single isomer, unassigned) [Example 29a]: 4.59
3) CCC1CN(C(=O)c2cncc(=O)[nH]2)CC1c1ccccc1 (single isomer, unassigned) [Example 15a]: 5.27
4) O=C(c1cncc(=O)[nH]1)N1CC(c2ccccc2Cl)C2(CCC2)C1 (single isomer, unassigned) [Example 30a]: 5.28
5) O=C(c1cncc(=O)[nH]1)N1CC(c2cccc(Cl)c2)C2(CCC2)C1 (single isomer, unassigned) [Example 31a]: 6.17
6) O=C(c1noc(=O)[nH]1)N1CC(c2cccc(F)c2)C2(CCC2)C1 (single isomer, unassigned) [Example 49a]: 6.52
7) O=C(c1cc(O)ccn1)N1CC(c2ccccc2)C2(CCC2)C1 (stereo not drawn) [Example 3]: 5.14
8) O=C(c1cnn[nH]1)N1CC(c2ccccc2)C2(CCC2)C1 (single isomer, unassigned) [Example 14a]: 5.23
9) O=C(c1noc(=O)[nH]1)N1CC(c2ccc(F)cc2)C2(CCC2)C1 (single isomer, unassigned) [Example 41a]: 5.95
